Molecular target: human DPP IV (Homo sapiens, UniProt P27487)
Construct: extracellular fragment of protease DPP IV (aa29-766)
Sequence (P27487 29-766): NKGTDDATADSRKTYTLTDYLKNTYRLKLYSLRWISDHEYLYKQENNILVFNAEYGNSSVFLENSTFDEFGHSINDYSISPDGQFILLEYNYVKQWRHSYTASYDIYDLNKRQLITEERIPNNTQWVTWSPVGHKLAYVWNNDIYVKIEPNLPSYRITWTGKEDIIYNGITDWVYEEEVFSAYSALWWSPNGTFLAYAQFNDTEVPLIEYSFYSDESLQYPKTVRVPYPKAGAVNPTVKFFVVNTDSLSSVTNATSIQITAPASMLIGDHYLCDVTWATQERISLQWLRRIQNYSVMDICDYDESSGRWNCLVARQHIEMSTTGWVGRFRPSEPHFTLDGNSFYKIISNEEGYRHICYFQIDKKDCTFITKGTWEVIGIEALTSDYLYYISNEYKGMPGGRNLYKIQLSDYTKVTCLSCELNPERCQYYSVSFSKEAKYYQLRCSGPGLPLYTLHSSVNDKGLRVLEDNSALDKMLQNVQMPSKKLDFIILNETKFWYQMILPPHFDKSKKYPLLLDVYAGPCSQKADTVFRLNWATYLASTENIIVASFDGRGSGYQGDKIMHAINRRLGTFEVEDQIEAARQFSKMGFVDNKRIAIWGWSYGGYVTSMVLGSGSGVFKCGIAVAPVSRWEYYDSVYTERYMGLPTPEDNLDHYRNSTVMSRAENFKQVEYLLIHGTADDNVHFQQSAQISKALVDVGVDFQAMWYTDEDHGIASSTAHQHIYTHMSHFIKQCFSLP
Assay: DPP IV activity screening (Ala-Pro-AMC fluorescence)
Listed next: entries and their corresponding pIC50.
Field pIC50 (float): negative decimal logarithm of the concentration in molar.

>>> valuereported("COC(=O)[C@@H](NC(=O)c1cc2nc(N3CCC[C@@H](N)C3)n(Cc3ccccc3C#N)c(=O)c2s1)C(C)C")
7.55

GET /value?item= Cl.N#Cc1ccccc1Cn1c(N2CCC[C@@H](N)C2)nc2cc(C(=O)O)sc2c1=O [Compound 39, hydrochloride] &field=pIC50 returns 7.55

GET /value?item= "N#Cc1ccccc1Cn1c(N2CCC[C@@H](N)C2)nc2cc(C(=O)N3CCOCC3)sc2c1=O" &field=pIC50 returns 7.73

GET /value?item= "N#Cc1ccccc1Cn1c(N2CCC[C@@H](N)C2)nc2cc(C(=O)NCc3cccc(C(F)(F)F)c3)sc2c1=O" &field=pIC50 returns 7.54

###

Target: human DPP 8 (Homo sapiens)
Construct: made in house; host or cells: insect cells, baculovirus Bac-to-Bac
Sequence (Q6V1X1 whole entry): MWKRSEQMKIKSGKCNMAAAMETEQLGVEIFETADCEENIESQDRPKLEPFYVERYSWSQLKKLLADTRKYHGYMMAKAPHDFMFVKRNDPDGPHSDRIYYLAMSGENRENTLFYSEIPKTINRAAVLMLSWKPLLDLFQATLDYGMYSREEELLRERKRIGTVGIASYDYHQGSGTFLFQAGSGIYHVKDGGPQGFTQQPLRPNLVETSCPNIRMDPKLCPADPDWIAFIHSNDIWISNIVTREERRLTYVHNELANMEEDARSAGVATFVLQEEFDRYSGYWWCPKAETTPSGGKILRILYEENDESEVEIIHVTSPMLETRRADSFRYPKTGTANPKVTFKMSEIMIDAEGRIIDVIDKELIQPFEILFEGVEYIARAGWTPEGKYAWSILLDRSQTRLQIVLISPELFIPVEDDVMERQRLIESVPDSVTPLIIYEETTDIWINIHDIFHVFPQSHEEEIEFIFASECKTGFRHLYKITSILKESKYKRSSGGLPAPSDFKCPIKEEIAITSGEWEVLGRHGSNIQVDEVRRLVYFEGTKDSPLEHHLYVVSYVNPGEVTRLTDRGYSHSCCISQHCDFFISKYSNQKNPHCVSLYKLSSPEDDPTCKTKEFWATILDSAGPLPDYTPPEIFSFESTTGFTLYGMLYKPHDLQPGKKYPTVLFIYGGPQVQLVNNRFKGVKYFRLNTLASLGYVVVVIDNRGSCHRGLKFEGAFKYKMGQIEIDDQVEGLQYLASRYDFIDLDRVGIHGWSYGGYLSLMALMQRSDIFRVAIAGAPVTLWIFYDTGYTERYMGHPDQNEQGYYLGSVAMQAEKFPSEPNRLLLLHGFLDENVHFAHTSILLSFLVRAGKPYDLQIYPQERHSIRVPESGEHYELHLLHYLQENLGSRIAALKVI
Assay: DPP 8 activity screening (Ala-Pro-AMC fluorescence)
Type: biochemical
Conditions: N.I. = No Inhibition
readout: DPP 8 IC50

>>> valuereported("Cc1ccc(CNC(=O)c2cc3nc(N4CCC[C@@H](N)C4)n(Cc4ccccc4C#N)c(=O)c3s2)cc1")
"N.I."
>>> valuereported("N#Cc1ccccc1Cn1c(N2CCC[C@@H](N)C2)nc2cc(CN3CCOCC3)sc2c1=O")
"N.I."
>>> valuereported("CNC(=O)c1cc2nc(N3CCC[C@@H](N)C3)n(Cc3ccccc3C#N)c(=O)c2s1")
"N.I."
>>> valuereported("N#Cc1ccccc1Cn1c(N2CCC[C@@H](N)C2)nc2c(CO)csc2c1=O")
"N.I."

Field: next compound
Entry "N#Cc1ccccc1Cn1c(N2CCC[C@@H](N)C2)nc2c(C(=O)N3CCOCC3)csc2c1=O" , tested on human DPP 8 (Homo sapiens), has a reported DPP 8 IC50 of N.I.

###

Test: Safety evaluation: single dose 100 mg/kg by gavage, one week observation
Assay type: in vivo, ICR mouse
Conditions: normal ICR mouse, 100 mg/kg single dose, 7 d after administration
readout: food consumption (g · day^−1 · cage^−1)
Give the number; g · day^−1 · cage^−1 is assumed, so skip it.

>>> valuereported("COC(=O)c1csc2c(=O)n(Cc3ccccc3C#N)c(N3CCC[C@@H](N)C3)nc12")
23.8

GET /value?item= COC(=O)c1cc2nc(N3CCCC(N)C3)n(Cc3ccccc3C#N)c(=O)c2s1 (stereo not shown) &field=food consumption returns 23.5

GET /value?item= "N#Cc1ccccc1Cn1c(N2CCC[C@@H](N)C2)nc2c(CO)csc2c1=O" &field=food consumption returns 24.1

GET /value?item= "N#Cc1ccccc1Cn1c(N2CCC[C@@H](N)C2)nc2cc(C(Br)Br)sc2c1=O" &field=food consumption returns 21.9

###

Listed next: entries and their corresponding food consumption.
Test: Safety evaluation: single dose 100 mg/kg by gavage, one week observation
Format: in vivo, ICR mouse
Details: normal ICR mouse, 100 mg/kg single dose, 2 d after administration
Give the number; g · day^−1 · cage^−1 is assumed, so skip it.

GET /value?item= N#Cc1ccccc1Cn1c(N2CCC[C@@H](N)C2)nc2cc(C(Br)Br)sc2c1=O [DC291411] &field=food consumption returns 21.3

GET /value?item= N#Cc1ccccc1Cn1c(N2CCC[C@@H](N)C2)nc2c(CO)csc2c1=O [DC291004] &field=food consumption returns 21.0

GET /value?item= COC(=O)c1csc2c(=O)n(Cc3ccccc3C#N)c(N3CCC[C@@H](N)C3)nc12 [DC291009] &field=food consumption returns 21.3

GET /value?item= COC(=O)c1cc2nc(N3CCCC(N)C3)n(Cc3ccccc3C#N)c(=O)c2s1 (stereo not shown) [DC291407] &field=food consumption returns 18.5
